biological target: Thymidine kinase (Human herpesvirus 1); assay: Inhibitory activity against HSV-1 Thymidine kinase in OST-TK-/HSV-1 TK+ cell line in combination with BVAraU
EXPERIMENTAL ENDPOINT: IC50 (nM)
Write it as a number; the unit nM goes unstated.

Any idea what IC50 was measured for Cc1cn(Cc2ccccc2COC(c2ccccc2)(c2ccccc2)c2ccccc2)c(=O)[nH]c1=O ?
8

----------
molecular target: Thymidine kinase 2, mitochondrial (Homo sapiens); test: Inhibitory effect against phosphorylation of [methyl-3H]dThd by Thymidine Kinase 2 (TK-2)
EXPERIMENTAL ENDPOINT: IC50 (µM)
Write it as a number; the unit µM goes unstated.

# get_value(readout= IC50, system= Thymidine kinase 2, mitochondrial (Homo sapiens)) for Cc1cn(C/C=C\COC(=O)c2ccccc2)c(=O)[nH]c1=O
30

----------
target: Thymidine kinase (Human herpesvirus 1); assay: Compound was evaluated for inhibitory effect against phosphorylation of [methyl-3H]dThd by HSV-1 Thymidine kinase
EXPERIMENTAL ENDPOINT: pIC50
Give only the number. pIC50 is defined as minus log10 of concentration in molar units.

# MOLECULE, MEASURED NUMBER
measured = [
    ("COc1ccc(C(OCC2OC(n3cc(C)c(=O)[nH]c3=O)CC2O)(c2ccccc2)c2ccc(OC)cc2)cc1 (configuration not stated)", 4.85),
]

Shift focus to the following entry.
Any idea what pIC50 was measured for Cc1cn(CC#CCOC(c2ccccc2)(c2ccccc2)c2ccccc2)c(=O)[nH]c1=O ?
5.51

Where these numbers come from: BindingDB's records for doi:10.1021/jm011128+
